- Measurement target: T1, human PCSK9 (proprotein convertase subtilisin kexin type 9) (human, UniProt Q8NBP7 31-692)
- T1 construct: Directly immobilized (SPR ProteOn), biotinylated (BLI), or in solution, depending on the assay; also called hPCSK9
- T1 sequence (Q8NBP7 31-692 limits assumed): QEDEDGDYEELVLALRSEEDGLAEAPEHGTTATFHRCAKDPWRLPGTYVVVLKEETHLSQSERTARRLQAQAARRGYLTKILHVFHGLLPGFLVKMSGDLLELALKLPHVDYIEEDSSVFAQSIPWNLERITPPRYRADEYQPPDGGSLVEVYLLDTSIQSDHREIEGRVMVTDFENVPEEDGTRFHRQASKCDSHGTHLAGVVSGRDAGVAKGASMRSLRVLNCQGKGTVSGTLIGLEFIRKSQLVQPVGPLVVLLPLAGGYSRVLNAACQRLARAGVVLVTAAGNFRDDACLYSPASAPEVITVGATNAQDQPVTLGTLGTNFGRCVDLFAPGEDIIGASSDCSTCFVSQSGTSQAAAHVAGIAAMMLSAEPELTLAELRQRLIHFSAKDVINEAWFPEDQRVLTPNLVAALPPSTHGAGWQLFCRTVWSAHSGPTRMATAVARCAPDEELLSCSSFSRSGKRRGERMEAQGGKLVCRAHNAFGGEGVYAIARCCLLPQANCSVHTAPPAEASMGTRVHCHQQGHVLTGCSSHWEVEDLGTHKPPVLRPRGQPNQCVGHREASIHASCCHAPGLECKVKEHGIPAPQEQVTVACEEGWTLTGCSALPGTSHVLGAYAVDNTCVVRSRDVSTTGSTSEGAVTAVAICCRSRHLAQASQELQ
- Method notes: SPR ProteOn, PCSK9 immobilized, 25 C
Listing of entries alongside the reported kon.
Observable: kon

{"Binder": "1922G04 (designed binder, Anti-PCSK9 Adnectin, His6-tagged; also called ATI001057; ATI-1057) MGVSDVPRDLEVVAATPTSLLISWRPPSHAYGYYRITYGETGGNSPVQEFTVPIGKGTATISGLKPGVDYTITVYAVEYPWKGSGYYHRPISINYRTEIDKPSQHHHHHH", "Test value": "541000 M⁻¹ s⁻¹"}
{"Binder": "2012A04 (designed binder, Anti-PCSK9 Adnectin, His6-tagged) MGVSDVPRDLEVVAATPTSLLISWRPPSNGHGYYRITYGETGGNSPVQEFTVPVNEGTATISGLKPGVDYTITVYAVEFPFKWSGYYHRPISINYRTEIDKPSQHHHHHH", "Test value": "259000 M⁻¹ s⁻¹"}
{"Binder": "1459D05 (designed binder, also called ATI000891; ATI-891) MGVSDVPRDLEVVAATPTSLLISWPPPSHGYGYYRITYGETGGNSPVQEFTVPPGKGTATISGLKPGVDYTITVYAVEYPYKHSGYYHRPISINYRTEIDKPSQHHHHHH", "Test value": "113000 M⁻¹ s⁻¹"}
{"Binder": "2011H05 (designed binder, Anti-PCSK9 Adnectin, His6-tagged; also called ATI001091) MGVSDVPRDLEVVAATPTSLLISWVPSSHAYGYYRITYGETGGNSPVQEFTVPVGVGTATISGLKPGVDYTITVYAVEYAFEGAGYYHRPISINYRTEIDKPSQHHHHHH", "Test value": "118000 M⁻¹ s⁻¹"}

meta.source: patent US20120094909A1
